This collection of values is drawn from the supplement of paper PMC4862054.

I'd appreciate it if you could supply normalised response values for the items below.
system: MDA-MB-436; assay: normalised response (% of control), CellTiter-Glo; higher = more viable cells (100 = DMSO, 0 = benzethonium chloride kill control); settings: incubation time: 72 h
One number for each entry, in %.

- compound: "Cc1ccc(C(=O)N(CCCN)[C@@H](c2oc3cc(Cl)ccc3c(=O)c2Cc2ccccc2)C(C)C)cc1 (100 nM)"
  reported_measurement: 88.3
- compound: "CCCCCCCCCCCCCCCCCCOP(=O)([O-])OC1CC[N+](C)(C)CC1 [Perifosine] (2500 nM)"
  reported_measurement: 87.9

Now, please, on to the next compound.
Memo: C#Cc1cccc(Nc2ncnc3cc(OCCOC)c(OCCOC)cc23)c1 [Erlotinib] (10000 nM) , reported normalised response: 79
